Source: paper PMC6153967

experiment: Oral and intravenous pharmacokinetics in Sprague Dawley rats; format: in vivo; settings: male, rat, plasma, 10 mg/kg
measurement label: clearance (mL/min/kg)
Please reply with the bare figure in mL/min/kg and do not write the unit itself.

Task item: Item `O=C(O)CCS(=O)(=O)O` has what recorded clearance?
Reply: 45

###

assay: Oral and intravenous pharmacokinetics in Sprague Dawley rats; type: in vivo; details: male, rat, plasma, 10 mg/kg, Vss, intravenous 10 mg/kg
measurement label: Vd (L/kg)
Field format: number, assumed L/kg, no unit text.

Task item: Sample `O=C(O)CCS(=O)(=O)O` — what was its Vd?
Reply: 12.9

###

experiment: Oral and intravenous pharmacokinetics in Sprague Dawley rats; format: in vivo; settings: male, rat, plasma, 10 mg/kg, Vz, intravenous 10 mg/kg
measurement label: Vd
Put down the number, then write its unit next to it.

Task item: # get_value(readout='Vd', item= `O=C(O)CCS(=O)(=O)O` )
Reply: 43.6 L/kg
